assay: Oral bioavailability in mouse at 30 mg/kg, po; type: ADME, organism-based; settings: in vivo
bioavailability listing for selected molecules.
Answers without a unit are incomplete; give the number and then its unit.

# count of solved cases: 4
[[record]]
molecule = "CCc1ccc(NS(=O)(=O)c2ccccc2NCCC2CCCN2C)c(C(=O)O)c1OC (stereo not given)"
observed_value = "13%"

[[record]]
molecule = "CCc1ccc(NS(=O)(=O)c2ccccn2)c(C(=O)O)c1C"
observed_value = "86%"

[[record]]
molecule = "CCc1ccc(NS(=O)(=O)c2ccc(F)cc2/C=C\\CN(CC)CC)c(C(=O)O)c1OC"
observed_value = "16%"

[[record]]
molecule = "CCc1ccc(NS(=O)(=O)c2ccccc2NCCCCN(C)C)c(C(=O)O)c1OC"
observed_value = "31%"


In the following, a different molecule is considered.
Reported bioavailability ( `CCc1ccc(NS(=O)(=O)c2ccc(F)cc2)c(C(=O)O)c1OCCN` ) = 38%
